Listing of entries alongside the reported AIRE transcriptional activation functional score.
B1: library; numbered along this chain (parent)
chain: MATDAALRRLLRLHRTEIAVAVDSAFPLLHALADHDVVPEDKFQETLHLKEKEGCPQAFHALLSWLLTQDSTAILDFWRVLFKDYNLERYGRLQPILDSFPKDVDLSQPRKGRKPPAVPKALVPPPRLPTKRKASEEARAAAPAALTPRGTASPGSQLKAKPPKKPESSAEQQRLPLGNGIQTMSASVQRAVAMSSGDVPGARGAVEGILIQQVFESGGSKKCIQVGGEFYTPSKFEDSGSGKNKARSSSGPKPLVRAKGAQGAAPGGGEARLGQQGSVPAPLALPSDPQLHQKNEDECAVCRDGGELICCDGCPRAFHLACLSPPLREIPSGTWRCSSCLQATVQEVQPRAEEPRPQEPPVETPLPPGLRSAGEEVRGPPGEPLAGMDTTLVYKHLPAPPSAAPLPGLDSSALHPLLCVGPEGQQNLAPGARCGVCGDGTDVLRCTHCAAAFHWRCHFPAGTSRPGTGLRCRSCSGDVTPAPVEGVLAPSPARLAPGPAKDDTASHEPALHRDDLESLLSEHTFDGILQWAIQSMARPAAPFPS

# Variants of: B1
# test: AIRE transcriptional activation functional score (insulin promoter-GFP; nonsense median 0, synonymous median 1) (normalised score); higher = higher AIRE activity (more reporter activation)
# assay_conditions: with insulin promoter-GFP reporter in HEK293
quantity_kind: AIRE transcriptional activation functional score

mutant_name	observed_result
P109N	-1.94
N179Q	-0.585
L444H	1.18
V348G	1.04
G462T	0.372
R203C	1.82

src = the supplement of paper PMC12667976
